Cited source: patent US20250223301A1

// DGKa (Homo sapiens (Human), UniProt P23743) pIC50 records
When answering, recall that pIC50 equals minus log10 of the concentration in mol/L, and write that number alone.

Task: I am curious: what pIC50 value has been reported for `Cn1c(=O)nc(N2CCCc3c(C#CC4CC4)cccc32)c2nc(C#N)ccc21` ?
Result: 8.52

Task: I am curious: what pIC50 value has been reported for `CC[C@H]1CN([C@H]2CCCCc3cc(C(F)(F)F)ccc32)[C@H](CC)CN1c1nc2nncn2c2ccc(C#N)nc12` ?
Result: 7.36

Task: I am curious: what pIC50 value has been reported for `CC[C@H]1CN([C@H](CC)c2ccc(C(F)(F)F)cc2)[C@H](CC)CN1c1nc2nccn2c2ccc(C#N)nc12` ?
Result: 8.22

Task: I am curious: what pIC50 value has been reported for `Cn1c(=O)c(C(N)=O)c(N2CCC3(CN(c4ccc(OC(F)(F)F)cc4)C3)C2)c2nc(C#N)ccc21` ?
Result: 7.72

Task: I am curious: what pIC50 value has been reported for `Cc1ccc2oc(C3CCN(c4nc(=O)n(C)c5ccc6nncn6c45)CC3)nc2c1` ?
Result: 8.30

Task: I am curious: what pIC50 value has been reported for `Cn1c(=O)nc(N2CCC3(CC2)CC(c2ccc(OC(F)(F)F)cc2)=NO3)c2nc(C#N)ccc21` ?
Result: 7.70

* * *

Test system: PBMC
assayDetails: Human PBMC IL-2 assay
Type: cell-based
conditionInfo: anti-CD3/CD28 stimulation overnight, IL-2 level
Give measured EC50 for each item. Keep answers brief.
Field format: number, assumed nM, no unit text.

Task: I am curious: what EC50 value has been reported for CC[C@@H]1CN2c3c(c(=O)n(C)c4ccc(C#N)nc34)OC[C@@H]2CN1[C@H](CC)c1ccc(C(F)(F)F)cn1 (stereo in doubt) ?
Result: 322

Task: I am curious: what EC50 value has been reported for `CC[C@H]1CN2[C@@H](COC[C@@H]2c2ccc(C(F)(F)F)cc2)CN1c1nc(=O)n(C)c2ccc(C#N)nc12` ?
Result: 1310

Task: I am curious: what EC50 value has been reported for CC[C@H]1CN([C@H](CC)c2c(Cl)cccc2Cl)[C@H](CC)CN1c1nc2nncn2c2ccc(C#N)nc12 (stereo in doubt) ?
Result: 1380

Task: I am curious: what EC50 value has been reported for CCC[C@H](c1ccc(Cl)cc1)N1C[C@H]2COc3c(c4nc(C#N)ccc4n(C)c3=O)N2C[C@H]1CC (stereo in doubt) ?
Result: 49

Task: I am curious: what EC50 value has been reported for `CC[C@H]1C[C@@H](Oc2ccc(OC(F)(F)F)cc2)CCN1c1nc(=O)n(C)c2ccc(C#N)nc12` ?
Result: 401

Task: I am curious: what EC50 value has been reported for CC[C@@H]1CN2c3c(c(=O)n(C)c4ccc(C#N)nc34)OC[C@@H]2CN1[C@H](CC)c1ccc(F)c(F)c1 (stereo in doubt) ?
Result: 1880

* * *

// DGKa (Homo sapiens (Human)) log10 of IC50 records
Lab note - IC50 converted to log10 from values in nM.

Task: Item: CN(c1cccc(C#CC2CC2)c1)c1nc(=O)n(C)c2ccc(C#N)nc12 [Compound 46] Test system: DGKa (Homo sapiens (Human)) Read-out: log10 of IC50 Value: ?
Result: 0.70

Task: Item: CC[C@H]1CN([C@H](CC)c2ccc(C(F)(F)F)cc2)[C@H](CC)CN1c1nc2nncn2c2ccc(C#N)nc12 [Compound 35] Test system: DGKa (Homo sapiens (Human)) Read-out: log10 of IC50 Value: ?
Result: 1.20

Task: Item: CC[C@H]1CN([C@H](CC)c2nc(C3CC3)no2)[C@H](CC)CN1c1nc2nncn2c2ccc(C#N)nc12 [Compound 120] Test system: DGKa (Homo sapiens (Human)) Read-out: log10 of IC50 Value: ?
Result: 1.00

Task: Item: CC[C@@H]1CN2c3c(c(=O)n(C)c4ccc(C#N)nc34)OC[C@H]2CN1[C@@H](CC)c1ccc(C(F)(F)F)cc1 [Compound 107] Test system: DGKa (Homo sapiens (Human)) Read-out: log10 of IC50 Value: ?
Result: 0.95

Task: Item: CC[C@H]1CN(C(CO)c2ccc(S(F)(F)(F)(F)F)cc2)[C@H](CC)CN1c1nc(=O)n(C)c2ccc(C#N)nc12 (stereo partly shown) [Compound 77] Test system: DGKa (Homo sapiens (Human)) Read-out: log10 of IC50 Value: ?
Result: 1.51

Task: Item: Cn1c(=O)c(C(N)=O)c(N2CCC3(CCN(c4ccc(OC(F)(F)F)cc4)C3)CC2)c2nc(C#N)ccc21 [Compound 6] Test system: DGKa (Homo sapiens (Human)) Read-out: log10 of IC50 Value: ?
Result: 2.33

Task: Item: Cn1c(=O)nc(N2CCC3(CCN(c4ccc(OC(F)(F)F)cc4)C3)CC2)c2nc(C#N)ccc21 [Compound 8] Test system: DGKa (Homo sapiens (Human)) Read-out: log10 of IC50 Value: ?
Result: 2.76

* * *

system: DGKa (Homo sapiens (Human))
Sequence (P23743 whole entry): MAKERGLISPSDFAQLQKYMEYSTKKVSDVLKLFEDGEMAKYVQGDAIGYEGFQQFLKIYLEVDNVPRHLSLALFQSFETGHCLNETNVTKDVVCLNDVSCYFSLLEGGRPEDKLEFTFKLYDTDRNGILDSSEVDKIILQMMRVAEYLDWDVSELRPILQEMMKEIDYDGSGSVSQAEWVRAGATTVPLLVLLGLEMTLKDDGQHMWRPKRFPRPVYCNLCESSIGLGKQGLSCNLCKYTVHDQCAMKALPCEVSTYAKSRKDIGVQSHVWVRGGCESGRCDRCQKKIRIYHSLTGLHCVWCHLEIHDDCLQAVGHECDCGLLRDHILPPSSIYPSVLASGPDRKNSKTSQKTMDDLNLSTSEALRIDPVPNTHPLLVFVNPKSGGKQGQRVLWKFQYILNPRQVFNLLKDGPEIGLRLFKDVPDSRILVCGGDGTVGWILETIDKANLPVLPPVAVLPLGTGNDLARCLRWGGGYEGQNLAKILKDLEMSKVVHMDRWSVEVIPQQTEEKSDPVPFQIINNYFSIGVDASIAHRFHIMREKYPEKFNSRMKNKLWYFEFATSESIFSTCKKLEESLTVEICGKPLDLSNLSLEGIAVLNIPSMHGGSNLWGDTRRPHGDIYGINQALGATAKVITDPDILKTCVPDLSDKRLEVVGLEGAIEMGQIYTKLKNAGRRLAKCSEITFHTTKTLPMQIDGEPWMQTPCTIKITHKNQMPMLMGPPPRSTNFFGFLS
assayDetails: biochemical
Give measured pIC50 for each item. Keep answers brief.
When answering, recall that pIC50 equals minus log10 of the concentration in mol/L, and write that number alone.

Task: Item: CC[C@H]1CN([C@H](C)c2ccc(SC(F)(F)F)cc2)[C@H](CC)CN1c1nc2nncn2c2ccc(C#N)nc12 (stereo in doubt) Test system: DGKa (Homo sapiens (Human)) Read-out: pIC50 Value: ?
Result: 8.30

Task: Item: CC[C@@H]1CN(c2nc3nncn3c3ccc(C#N)nc23)[C@@H](C)CN1[C@H](CC)c1ccc(C(F)(F)F)cc1 (stereo in doubt) Test system: DGKa (Homo sapiens (Human)) Read-out: pIC50 Value: ?
Result: 8.70

Task: Item: `CC[C@H]1C[C@@H](Oc2ccc(OC(F)(F)F)cc2)CCN1c1nc(=O)n(C)c2ccc(C#N)nc12` Test system: DGKa (Homo sapiens (Human)) Read-out: pIC50 Value: ?;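 also: biochemical DGK kinase assay, ADP-Glo luminescence from ADP made by phosphorylating 1,2-dioleoyl-sn-glycerol, 20 min compound preincubation then 40 min reaction at 25 °C, 1% DMSO control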
Result: 7.28

* * *

system: DGKz (Homo sapiens (Human), UniProt Q13574)
Sequence (Q13574 whole entry): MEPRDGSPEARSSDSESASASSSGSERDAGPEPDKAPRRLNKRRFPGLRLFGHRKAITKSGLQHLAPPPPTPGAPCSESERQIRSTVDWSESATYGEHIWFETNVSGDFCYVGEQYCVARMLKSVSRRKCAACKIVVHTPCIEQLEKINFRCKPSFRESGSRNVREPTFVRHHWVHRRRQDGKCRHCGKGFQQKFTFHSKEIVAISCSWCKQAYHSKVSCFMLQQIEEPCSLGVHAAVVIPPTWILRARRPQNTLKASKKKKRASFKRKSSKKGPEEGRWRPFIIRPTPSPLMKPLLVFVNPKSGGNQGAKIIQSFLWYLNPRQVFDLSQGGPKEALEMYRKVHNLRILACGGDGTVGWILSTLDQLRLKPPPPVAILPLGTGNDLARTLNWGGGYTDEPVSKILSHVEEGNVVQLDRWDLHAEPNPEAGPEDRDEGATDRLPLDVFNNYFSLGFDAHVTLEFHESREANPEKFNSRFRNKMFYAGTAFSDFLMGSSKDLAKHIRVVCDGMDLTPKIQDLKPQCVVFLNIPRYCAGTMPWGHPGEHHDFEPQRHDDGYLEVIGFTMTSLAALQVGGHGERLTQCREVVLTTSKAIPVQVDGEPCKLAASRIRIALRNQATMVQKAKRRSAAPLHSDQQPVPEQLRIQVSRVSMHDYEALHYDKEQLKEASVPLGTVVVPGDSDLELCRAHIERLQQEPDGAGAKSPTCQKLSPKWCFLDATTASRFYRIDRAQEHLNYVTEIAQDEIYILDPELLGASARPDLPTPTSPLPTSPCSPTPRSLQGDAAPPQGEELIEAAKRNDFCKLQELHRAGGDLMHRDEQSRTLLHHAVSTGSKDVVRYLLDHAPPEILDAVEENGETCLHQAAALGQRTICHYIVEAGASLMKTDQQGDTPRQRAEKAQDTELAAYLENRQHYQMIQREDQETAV
propertyLabel: pIC50
When answering, recall that pIC50 equals minus log10 of the concentration in mol/L, and write that number alone.

Task: Item: `CC[C@@H]1C[C@H](Oc2ccc(OC(F)(F)F)cc2)CCN1c1nc(=O)n(C)c2ccc(C#N)nc12` Test system: DGKz (Homo sapiens (Human), UniProt Q13574) Read-out: pIC50 Value: ?
Result: 7.24

Task: Item: `CC[C@@H]1CN(c2nc3nncn3c3ccc(C#N)nc23)[C@@H](CC)CN1C(=O)Cc1ccc(C(F)(F)F)cc1` Test system: DGKz (Homo sapiens (Human), UniProt Q13574) Read-out: pIC50 Value: ?
Result: 6.11

Task: Item: `CC[C@@H]1CN(c2nc3nncn3c3ccc(C#N)nc23)[C@@H](CC)CN1C(=O)Nc1ccc(C(F)(F)F)cc1` Test system: DGKz (Homo sapiens (Human), UniProt Q13574) Read-out: pIC50 Value: ?
Result: 6.52

Task: Item: CC[C@H]1CN([C@@H](CC)c2ccc(OC(F)(F)F)cc2)[C@H](CC)CN1c1nc2nncn2c2ccc(C#N)nc12 (single isomer, unassigned) Test system: DGKz (Homo sapiens (Human), UniProt Q13574) Read-out: pIC50 Value: ?
Result: 7.52

Task: Item: CC[C@H]1C[C@@H](c2nc3cc(C)ccc3o2)CCN1c1nc(=O)n(C)c2cc(O[C@@H]3CCOC3)c(Cl)cc12 (single isomer, unassigned) Test system: DGKz (Homo sapiens (Human), UniProt Q13574) Read-out: pIC50 Value: ?
Result: 5.89

Task: Item: `CC[C@H]1CN([C@H](c2ccc(S(F)(F)(F)(F)F)cc2)c2nc(C3CC3)cs2)[C@H](CC)CN1c1nc(=O)n(C)c2ccc(C#N)nc12` Test system: DGKz (Homo sapiens (Human), UniProt Q13574) Read-out: pIC50 Value: ?
Result: 7.40

Task: Item: CC[C@@H]1CN(c2nc3nncn3c3ccc(C#N)nc23)[C@@H](C)CN1[C@@H](CC)c1ccc(SC(F)(F)F)cc1 (stereo in doubt) Test system: DGKz (Homo sapiens (Human), UniProt Q13574) Read-out: pIC50 Value: ?
Result: 7.28

Task: Item: `CC[C@H]1CN([C@H](c2ccc(SC(F)(F)F)cc2)c2nc(C3CC3)cs2)[C@H](CC)CN1c1nc(=O)n(C)c2ccc(C#N)nc12` Test system: DGKz (Homo sapiens (Human), UniProt Q13574) Read-out: pIC50 Value: ?
Result: 6.22

Task: Item: `CC[C@H]1C[C@@H](Oc2ccc(OC(F)(F)F)cc2)CCN1c1nc(=O)n(C)c2ccc(C#N)nc12` Test system: DGKz (Homo sapiens (Human), UniProt Q13574) Read-out: pIC50 Value: ?
Result: 6.67

Task: Item: CC[C@H]1CN([C@@H](C)c2ccc(S(F)(F)(F)(F)F)cc2)[C@H](CC)CN1c1nc2nncn2c2ccc(C#N)nc12 (stereo in doubt) Test system: DGKz (Homo sapiens (Human), UniProt Q13574) Read-out: pIC50 Value: ?
Result: 7.42

Task: Item: `Cc1ccc2oc(C3CCN(c4nc(=O)n(C)c5cc(O[C@H]6CCOC6)c(Cl)cc45)CC3)nc2c1` Test system: DGKz (Homo sapiens (Human), UniProt Q13574) Read-out: pIC50 Value: ?
Result: 7.22

Task: Item: CC[C@H]1CN(C(c2ccc(S(F)(F)(F)(F)F)cc2)c2nc(C3CC3)no2)[C@H](CC)CN1c1nc(=O)n(C)c2ccc(C#N)nc12 (stereo partly shown) Test system: DGKz (Homo sapiens (Human), UniProt Q13574) Read-out: pIC50 Value: ?
Result: 7.26
